Reported pEC50 values for the following binders.
- tested.on: T1, human CD27 (human, UniProt P26842 21-260)
- T1 construct: also called hCD27; HsCD27
- assay.remarks: flow cytometry MFI, CD8+ T cells of human PBMC, N=2 donors
pEC50: −log10 of the molar value.
measured.metric: pEC50

- binder: "hCD27.131A VH7VL7 huIgG1 (antibody, V domains shown) VH: EIQLVQSGAEVKKPGASVKISCKASGYTFTNYGMNWVKQAPGQGLKWMGWINTNTGEPTYAEEFKGRFTFTLDTSATTAYLEISSLRSEDTAVYYCAREGDAMDYWGQGTTVTVSS VL: EIVLTQSPATLSLSPGERATLSCSASSSVSYMHWYQQKPGQAPKRWIYDTSKLASGVPARFSGSGSGTSYSLTISSLEPEDFATYYCQQWNSYPFTFGQGTKLEIK"
  recorded.number: 9.95
- binder: "hCD27.131A VH8VL6 huIgG1 (antibody, V domains shown) VH: EIQLVQSGAEVKKPGASVKVSCKASGYTFTNYGMNWVKQAPGQGLKWMGWINTNTGEPTYAEEFKGRFTFTLDTSISTAYMELSSLRNEDTAVYYCAREGDAMDYWGQGTTVTVSS VL: EIVLTQSPATLSLSPGERATLSCSASSSVSYMHWYQQKPGQAPKRWIYDTSKLASGVPARFSGSGSGTDYSLTISSLEPEDFAVYYCQQWNSYPFTFGQGTKLEIK"
  recorded.number: 9.95
- binder: "hCD27.131A VH7VL6 huIgG1 (antibody, V domains shown) VH: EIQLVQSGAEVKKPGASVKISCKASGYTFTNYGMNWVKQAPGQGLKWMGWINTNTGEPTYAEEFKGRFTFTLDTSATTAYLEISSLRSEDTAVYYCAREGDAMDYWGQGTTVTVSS VL: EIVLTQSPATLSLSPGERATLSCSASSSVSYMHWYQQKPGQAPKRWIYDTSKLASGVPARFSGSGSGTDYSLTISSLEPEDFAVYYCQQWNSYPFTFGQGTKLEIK"
  recorded.number: 9.90
